TGT: Serine/threonine-protein kinase NLK (Homo sapiens)
Sequence (whole entry): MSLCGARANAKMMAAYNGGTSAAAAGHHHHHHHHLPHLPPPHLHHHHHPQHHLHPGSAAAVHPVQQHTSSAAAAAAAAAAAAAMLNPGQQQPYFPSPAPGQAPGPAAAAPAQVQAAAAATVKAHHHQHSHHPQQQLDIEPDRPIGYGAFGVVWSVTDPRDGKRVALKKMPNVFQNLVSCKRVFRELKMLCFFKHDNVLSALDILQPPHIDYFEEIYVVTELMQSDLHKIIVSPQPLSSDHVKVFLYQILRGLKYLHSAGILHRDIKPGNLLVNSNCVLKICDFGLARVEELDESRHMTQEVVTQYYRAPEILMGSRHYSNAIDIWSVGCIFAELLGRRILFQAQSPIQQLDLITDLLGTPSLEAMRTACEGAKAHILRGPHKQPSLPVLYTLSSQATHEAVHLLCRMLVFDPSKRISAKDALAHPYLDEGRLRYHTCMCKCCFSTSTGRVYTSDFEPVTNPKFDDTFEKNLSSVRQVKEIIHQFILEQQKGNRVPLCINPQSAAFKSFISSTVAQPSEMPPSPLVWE
EXPERIMENTAL_PARAMETERS: at 10 µM
Friendly reminder: residual activity below 70% is 1, at or above is -1.

# count of solved cases: 5
>  <COMPOUND>
O=c1cc(N2CCOCC2)oc2c1ccc1ccccc12

>  <GROUP_LABEL>
-1

$$$$
>  <COMPOUND>
O=C1Nc2ccccc2/C1=C\c1c(Cl)[nH]c2ccccc12

>  <GROUP_LABEL>
-1

$$$$
>  <COMPOUND>
CC(C)(C)n1nc(Cc2cccc3ccccc23)c2c(N)ncnc21

>  <GROUP_LABEL>
1

$$$$
>  <COMPOUND>
O=c1cc(N2CCNCC2)oc2c(-c3ccccc3)cccc12

>  <GROUP_LABEL>
-1

$$$$
>  <COMPOUND>
O=C(NC(NC(=S)Nc1ccc(F)c([N+](=O)[O-])c1)C(Cl)(Cl)Cl)C(c1ccccc1)c1ccccc1 (configuration not stated)

>  <GROUP_LABEL>
-1

$$$$

In: Does the reported residual activity of `Cn1c2ccccc2c2c3c(c4c5ccccc5n(CCC#N)c4c21)CNC3=O` stay below 70%?
Out: 1

---

TGT: Serine/threonine-protein kinase 17A (Homo sapiens) (UniProt Q9UEE5)
Sequence (whole entry): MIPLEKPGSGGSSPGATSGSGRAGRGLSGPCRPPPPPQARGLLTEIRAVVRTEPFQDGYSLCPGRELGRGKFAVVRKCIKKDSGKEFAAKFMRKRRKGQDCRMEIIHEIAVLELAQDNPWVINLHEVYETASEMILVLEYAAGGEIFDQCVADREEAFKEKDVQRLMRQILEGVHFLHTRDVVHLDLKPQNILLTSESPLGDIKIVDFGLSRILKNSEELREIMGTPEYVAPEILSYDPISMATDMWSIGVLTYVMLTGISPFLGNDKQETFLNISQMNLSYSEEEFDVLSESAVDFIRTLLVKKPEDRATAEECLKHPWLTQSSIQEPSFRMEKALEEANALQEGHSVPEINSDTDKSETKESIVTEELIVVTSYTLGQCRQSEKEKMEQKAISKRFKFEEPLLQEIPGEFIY
EXPERIMENTAL_PARAMETERS: at 1 µM
This listing pairs compounds with measured residual activity.
Enter your answer as a number in %; do not include the unit.

>  <STRUCTURE_STRING>
O=C1NC(=O)C(c2c[nH]c3ccccc23)=C1c1c[nH]c2ccccc12

>  <residual activity / %>
67

$$$$

In: Fill in residual activity for record `c1ccc(-c2cnc(Nc3ccc(OCCN4CCCC4)cc3)s2)cc1`
Out: 31

In: Fill in residual activity for record `O=C(c1cc2cc(O)ccc2[nH]1)c1cc2cc(O)ccc2[nH]1`
Out: 13

In: Fill in residual activity for record `COc1cc2ncnc(Nc3cccc(Cl)c3)c2cc1OC`
Out: 103

In: Fill in residual activity for record `Nc1nc(Nc2ccc(S(N)(=O)=O)cc2)nn1C(=O)c1c(F)cccc1F`
Out: 77

In: Fill in residual activity for record `O=C(O)/C=C/c1cc(Br)c(Br)c(Br)c1Br`
Out: 79

In: Fill in residual activity for record `CN(C)S(=O)(=O)c1ccc2c(c1)/C(=C/c1cc3c([nH]1)CCCC3)C(=O)N2`
Out: 70

In: Fill in residual activity for record `CCN(CC)CCNC(=O)c1c(C)[nH]c(/C=C2\C(=O)Nc3ccc(Cl)cc32)c1C`
Out: 3

In: Fill in residual activity for record `COc1ccc(COc2ccc(Cc3cnc(N)nc3N)cc2OC)cc1`
Out: 112

In: Fill in residual activity for record `NC(=O)c1ccc(-c2nc(-c3ccc4c(c3)OCCO4)c(-c3ccccn3)[nH]2)cc1`
Out: 89

In: Fill in residual activity for record `COc1cc2nccc(Oc3ccc(NC(=S)NC(=O)c4ccccc4C)cc3)c2cc1OC`
Out: 129

Sourced from ChEMBL document CHEMBL2218924
